Recorded growth inhibition by entry
# assay_summary: antimalarial activity against Dd2 strain (AID 2302);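 also: 0% = DMSO untreated growth and 100% = chloroquine plus artemisinin killed control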
# settings: P. falciparum Dd2 in RBCs, LDH growth readout, 72 h; at 2 µM; stronger effect = higher value
Write the answer as a number in %, unit excluded.

These recorded examples may help you get a feel for the data.
O=c1cc(NCCCNCc2cccc(OC(F)(F)C(F)F)c2)[nH]c2ccccc12 | 7
CC(=O)Nc1ccc(CN(Cc2ccc(F)cc2)Cc2cccc(Oc3ccccc3)c2)cc1 | 82
O=C(Cc1ccc(NC(=O)c2ccc(O)c(-c3ccc(Cl)c(Cl)c3)c2)cc1)NCCN1CCCCC1 | 63
FC(F)(F)c1ccc2nc(-c3ccc(-c4ccc(CN5CCN(c6cnccn6)CC5)cc4)s3)[nH]c2c1 | 99
Cc1nc(N)nc(N)c1-c1cc(Cl)c(N)c(Cl)c1 | 2

Tell me growth inhibition reported for "CN1CCN(S(=O)(=O)c2ccc3nccc(Nc4ccc(Oc5ccccc5)cc4)c3c2)CC1"
91

Give the value of growth inhibition reported for the following: "O=C(Nc1cccc(F)c1)c1ccc(C(=O)NC2CCN(CC3CCCCC3)CC2)cc1"
16

Answer with the recorded growth inhibition for the molecule listed here: "CC(C)(C)C(=O)N1CCN(c2ccc([N+](=O)[O-])c(NC3CC3)c2)CC1"
97

Give growth inhibition for "CC(=O)Nc1nc(C(=O)Nc2ccc(-c3cccc(-c4nc5ccc(C(F)(F)F)cc5[nH]4)c3)cc2)cs1"
97
